test system: HIV-1 SG3.1; test: microbe, parasite or virus in culture; details: HIV-1; CC50 in TZM-bl cells
metric: Therapeutic index (CC50/IC50)

compound | experimentalSystem | valueReported
CC1(C)SC2N(C(=O)C23CC=C(C(=O)OCc2ccccc2)C3C(=O)c2ccc(C(F)(F)F)cc2)C1C(=O)OC(c1ccccc1)c1ccccc1 (stereo not drawn) [Compound 12e] | HIV-1 SG3.1 | 49.39
CC1(C)SC2N(C(=O)C23CC=C(C(=O)OCc2ccccc2)C3C(=O)c2ccco2)C1C(=O)OC(c1ccccc1)c1ccccc1 (stereo not drawn) [Compound 12i] | HIV-1 SG3.1 | 559.29
CC1(C)SC2N(C(=O)C23CC=C(C(=O)OCc2ccc(F)cc2)C3C(=O)c2ccccc2)C1C(=O)OC(c1ccccc1)c1ccccc1 (stereo not drawn) | HIV-1 SG3.1 | 502.97
CC1(C)SC2N(C(=O)C23CC=C(C(=O)OCc2ccc(Cl)cc2)C3C(=O)c2ccccc2)C1C(=O)OC(c1ccccc1)c1ccccc1 (stereo not drawn) | HIV-1 SG3.1 | 148.11
CC1(C)SC2N(C(=O)C23CC=C(C(=O)OCC=Cc2ccccc2)C3C(=O)c2ccc(Br)cc2)C1C(=O)OC(c1ccccc1)c1ccccc1 (stereo not drawn) [Compound 14i] | HIV-1 SG3.1 | 467.62
Cc1ccc(COC(=O)C2=CCC3(C(=O)N4C(C(=O)OC(c5ccccc5)c5ccccc5)C(C)(C)SC43)C2C(=O)c2ccc(Br)cc2)cc1 (stereo not drawn) [Compound 14h] | HIV-1 SG3.1 | 649.73

---

assay: Cellular viability assay (alamarBlue) in TZM-bl cells; format: cell-based; settings: human, 50% cytotoxic concentration
API: label(entry) gives TRUE if the entry's CC50 is strictly smaller than 60 µM; on equality or larger values it gives FALSE.

compound | category
CC1(C)SC2N(C(=O)C23C(C(=O)OCc2ccccc2)=CCC3C(=O)c2ccc([N+](=O)[O-])cc2)C1C(=O)OC(c1ccccc1)c1ccccc1 (stereo not drawn) [Compound 13d] | FALSE
CC1(C)SC2N(C(=O)C23C(C(=O)OCc2ccccc2)=CCC3C(=O)c2ccc(Br)cc2)C1C(=O)OC(c1ccccc1)c1ccccc1 (stereo not drawn) [Compound 13c] | TRUE
CC1(C)SC2N(C(=O)C23CC=C(C(=O)OCc2ccccc2)C3C(=O)c2ccc(F)cc2)C1C(=O)OC(c1ccccc1)c1ccccc1 (stereo not drawn) [Compound 12a] | TRUE
Cc1ccc(COC(=O)C2=CCC3(C(=O)N4C(C(=O)OC(c5ccccc5)c5ccccc5)C(C)(C)SC43)C2C(=O)c2ccc(Cl)cc2)cc1 (stereo not drawn) [Compound 14e] | FALSE
CC(C)(C)c1ccc(OC(=O)C2=CCC3(C(=O)N4C(C(=O)OC(c5ccccc5)c5ccccc5)C(C)(C)SC43)C2C(=O)c2ccccc2)cc1 (stereo not drawn) [Compound 9b] | TRUE
CC1(C)SC2N(C(=O)C23CC=C(C(=O)OCC=Cc2ccccc2)C3C(=O)c2ccc(Cl)cc2)C1C(=O)OC(c1ccccc1)c1ccccc1 (stereo not drawn) [Compound 14f] | FALSE
CC1(C)SC2N(C(=O)C23C(C(=O)OCc2ccccc2)=CCC3C(=O)c2ccc(F)cc2)C1C(=O)OC(c1ccccc1)c1ccccc1 (stereo not drawn) [Compound 13a] | FALSE
COc1ccc(COC(=O)C2=CCC3(C(=O)N4C(C(=O)OC(c5ccccc5)c5ccccc5)C(C)(C)SC43)C2C(=O)c2ccccc2)cc1 (stereo not drawn) [Compound 9i] | TRUE
CC1(C)SC2N(C(=O)C23CC=C(C(=O)Oc2ccccc2)C3C(=O)c2ccccc2)C1C(=O)OC(c1ccccc1)c1ccccc1 (stereo not drawn) [Compound 9a] | FALSE
CC1(C)SC2N(C(=O)C23CC=C(C(=O)OCC=Cc2ccccc2)C3C(=O)c2ccccc2)C1C(=O)OC(c1ccccc1)c1ccccc1 (stereo not drawn) [Compound 9n] | FALSE
CC1(C)SC2N(C(=O)C23CC=C(C(=O)OCC=Cc2ccccc2)C3C(=O)c2ccc(F)cc2)C1C(=O)OC(c1ccccc1)c1ccccc1 (stereo not drawn) [Compound 14c] | FALSE
